Test system: MALME-3M melanoma
assay-summary: NCI-60 one-dose screen, 48 h
condition-summary: 10 µM unless noted
Compounds without any hit were thinned out: in the full panel of roughly 83,000, 20% have a hit. Activity calls are given as the source filed them. Rule for the calls: active = growth percent below 10; inactive = the rest.
Select the matching outcome among active, inactive

Solved entries:
{"molecule": "COC(=O)/C=C1\\S/C(=N\\NC(=O)c2cc3ccc2/C=C\\c2ccc(cc2)/C=C\\3)N(Cc2ccccc2)C1=O", "qualitative-label": "inactive"}
{"molecule": "C=C1C(=O)O[C@H]2[C@H]1CC/C(C(=O)NCCCCCNC(=O)/C1=C/CC[C@@]3(C)O[C@H]3[C@H]3OC(=O)C(=C)[C@@H]3CC1)=C\\CC[C@@]1(C)O[C@@H]21", "qualitative-label": "inactive"}
{"molecule": "Cc1cc(C)c(S(=O)(=O)Oc2ccccc2[N+](=O)[O-])c(C)c1", "qualitative-label": "inactive"}
{"molecule": "COc1ccc(C/C(=C(\\C)c2ccc(OCCN3CCCC3)cc2)c2ccc(OCCN3CCCC3)cc2)cc1", "qualitative-label": "inactive"}
{"molecule": "CCOC(=O)Oc1c(OC)cc(C(=O)c2ccc(OC)c(OC(=O)CCl)c2OC)cc1OC", "qualitative-label": "inactive"}
{"molecule": "CCc1c2c(nc3ccc(OCc4ccc(B(O)O)cc4)cc13)-c1cc3c(c(=O)n1C2)COC(=O)[C@]3(O)CC", "qualitative-label": "active"}
{"molecule": "CN1C(=O)NC(c2ccc3c(c2)OCO3)C=C1c1ccccc1 (stereo not drawn)", "qualitative-label": "inactive"}

Input line: Hi, sorry to bother you, what did the test record for `Cn1cc(-c2nc(-c3c[nH]c4c(Cl)nccc34)cs2)c2cc(F)ccc21` ?
Output line: inactive

* * *

Tested on: NCI-H322M lung
assay-summary: NCI-60 one-dose screen, 48 h (100 = growth as untreated, 0 = no growth, -100 = all killed)
condition-summary: 10 µM unless noted
About 83,000 compounds went through this panel and 20% of them were active in at least one assay; those are over-represented in the sample as a whole.
Values of growth strictly less than 80% map to Met, and values of at least 80% map to Not met.

{"compound": "COc1cc2nc(-c3ccc(Cl)cc3)cc(OCCCN3CCCC3)c2cc1OC", "system-name": "NCI-H322M lung", "qualitative-label": "Met"}
{"compound": "COc1cc(/C=C/c2cc(O)c(C(C)=O)c(O)c2)cc2c1O[C@]1(C)CC[C@@H](O)C(C)(C)[C@H]1C2", "system-name": "NCI-H322M lung", "qualitative-label": "Met"}
{"compound": "CCN(CC)c1ccc(C(=O)c2ccccc2)cc1", "system-name": "NCI-H322M lung", "qualitative-label": "Not met"}
{"compound": "Cn1ccc2c1CC1CN(Cc3ccco3)C(=O)C1C2C(=O)O (configuration not stated)", "system-name": "NCI-H322M lung", "qualitative-label": "Not met"}
{"compound": "O=C1Nc2cc(Cl)ccc2/C1=C\\c1c(-c2ccc(F)cc2)nc2ccccn12", "system-name": "NCI-H322M lung", "qualitative-label": "Met"}
{"compound": "OCc1cnccc1NCCCCOc1ccc(Oc2ccccc2)cc1", "system-name": "NCI-H322M lung", "qualitative-label": "Not met"}
{"compound": "COc1ccc(/C=C(\\C#N)n2nc3cccc(F)c3n2)cc1", "system-name": "NCI-H322M lung", "qualitative-label": "Not met"}
{"compound": "O=C(CCN1CCCC1)Nc1ccc2c(Nc3ccc(Br)cc3)c3ccccc3nc2c1", "system-name": "NCI-H322M lung", "qualitative-label": "Met"}
{"compound": "CC(C)=CCC[C@](C)(O)[C@H]1CC[C@]2(C)[C@@H]1CC[C@@H]1[C@@]3(C)C/C(=C/c4ccccc4)C(=O)C(C)(C)[C@@H]3CC[C@]12C", "system-name": "NCI-H322M lung", "qualitative-label": "Not met"}
{"compound": "CCN(CC)CCOc1ccc(NC(=O)C(C(C)C)N2C(=O)/C(=C/c3ccc(Br)cc3)SC2=S)cc1 (configuration not stated)", "system-name": "NCI-H322M lung", "qualitative-label": "Not met"}

Input line: Lab note: growth threshold 80%. Does this compound come in strictly under it? `Brc1ccc(Nc2csc(-c3ccccn3)n2)cc1`
Output line: Not met

Input line: Lab note: growth threshold 80%. Does this compound come in strictly under it? `COc1cc2c(c(O)c1Br)C(=O)c1c(O)cc(C[C@H](C)O)cc1[C@H]2[C@H]1c2cc(C[C@H](C)O)cc(O)c2C(=O)c2c1cc(OC)c(Br)c2O`
Output line: Met

Input line: Lab note: growth threshold 80%. Does this compound come in strictly under it? `S=c1cc(S)c2cc(Br)ccc2[nH]1`
Output line: Not met

Input line: Lab note: growth threshold 80%. Does this compound come in strictly under it? `O=c1c2c(c(=O)n1O)c1c3ccc[nH]c3nc1c1nc3[nH]cccc3c12`
Output line: Not met

Input line: Lab note: growth threshold 80%. Does this compound come in strictly under it? O=C(c1nc2ccccc2[nH]1)C1C(c2ccc(Cl)cc2)C2CC3CCCC[C@H]3N2[C@@]12C(=O)Nc1cc(Cl)ccc12 (some centres not stated)
Output line: Met

Input line: Lab note: growth threshold 80%. Does this compound come in strictly under it? `Cc1nn(-c2ccccc2)c(Cl)c1/C=C/C(=O)c1ccc(F)cc1`
Output line: Not met

Input line: Lab note: growth threshold 80%. Does this compound come in strictly under it? `Fc1ccc(-c2cn3c(nc4ccccc43)c(-c3ccccc3)n2)cc1`
Output line: Not met

Input line: Lab note: growth threshold 80%. Does this compound come in strictly under it? `O=C(O)c1ccc(-c2nn(-c3ccc(C(F)(F)F)cc3)cc2CNc2ccc(Oc3ccccc3)cc2)cc1`
Output line: Met
